attribute measured: melting point

Entry under test: Cc1cccc(-c2nc(-c3ccccc3Cl)sc2-c2ccnc(NCc3ccccc3)c2)c1 [Example Compound 19-14] . Its melting point was 84 to 86 °C

Entry under test: CCc1nc(-c2cccc(C)c2)c(-c2ccnc(NC(=O)CCCc3ccccc3)c2)s1 [Example Compound 16-5] . Its melting point was 92 to 93 °C

Entry under test: Cc1cccc(-c2nc(-c3ccccc3Cl)sc2-c2ccnc(NCCc3ccccc3)c2)c1 [Example Compound 19-15] . Its melting point was 113 to 114 °C

Further cases:
Entry under test: Cc1cccc(-c2nc(-c3ccc(F)cc3)sc2-c2ccnc(NCCCc3ccccc3)c2)c1 [Example Compound 19-13] . Its melting point was 110 to 112 °C

Entry under test: Cc1cccc(-c2nc(-c3ccccc3Cl)sc2-c2ccnc(NC(=O)Cc3ccccc3)c2)c1 [Example Compound 15-5] . Its melting point was 141 to 142 °C

Entry under test: CSc1ccc(-c2nc(-c3cccc(C)c3)c(-c3ccnc(NC(=O)Cc4ccccc4)c3)s2)cc1 [Example Compound 15-6] . Its melting point was 205 to 206 °C
